FYI, the data here is from ChEMBL document CHEMBL2380247.

This section presents compounds with their documented growth, % of control at 0.3 µM values.
System: NUGC-3
Measurement protocol: Antiproliferative activity against human NUGC3 cells at 0.3 uM by SRB assay
Format: functional
The reply should consist of the numeric value with the unit placed after it.

# example entries with known answers
INSERT INTO assay_data (chemical_smiles, reported_value) VALUES
  ('CCCCCCCCCCCCCCCCCC(=O)NCC(C)(C)C[N+](C)(C)CC', '69.6%'),
  ('CCCCCCCCCCCCCC(=O)NCCC[N+](C)(C)C', '73.2%'),
  ('CCCCCCCCCCCCCCCC(=O)NCCC[N+](C)(C)C', '109%'),
  ('C=CC[N+](C)(C)CCCN(C)C(=O)CCCCCCCCCCCCC', '82.8%'),
  ('CCCCCCCCCCCCCCCC(=O)N(C)CC[N+](CC)(CC)Cc1ccccc1', '84.8%');

Asked: Which growth, % of control at 0.3 µM value is on record for `CCCCCCCCCCCCCC(=O)NCC(C)(C)C[N+](C)(C)C` ?
Given back: 104%

Asked: Which growth, % of control at 0.3 µM value is on record for `CCCCCCCCCCCCCCCC(=O)N(C)CCC[N+](C)(C)C` ?
Given back: 68%

Asked: Which growth, % of control at 0.3 µM value is on record for `CCCCCCCCCCCCCCCC(=O)NCC(C)(C)C[N+](C)(C)CC` ?
Given back: 90.9%

Asked: Which growth, % of control at 0.3 µM value is on record for `CCCCCCCCCCCCCCCCCC(=O)NCC(C)(C)C[N+](C)(C)C` ?
Given back: 72.3%

Asked: Which growth, % of control at 0.3 µM value is on record for `CCCCCCCCCCCCCCCC(=O)N(C)CCC[N+](C)(C)Cc1ccccc1` ?
Given back: 105%

Asked: Which growth, % of control at 0.3 µM value is on record for `CCCCCCCCCCCCCC(=O)N(C)CC[N+](C)(C)C` ?
Given back: 70.9%

Asked: Which growth, % of control at 0.3 µM value is on record for `CCCCCCCCCCCCCC(=O)N(C)CC[N+](CC)(CC)CC` ?
Given back: 56.2%

Asked: Which growth, % of control at 0.3 µM value is on record for `CCCCCCCCCCCCCCCCCC(=O)NCCC[N+](C)(C)C` ?
Given back: 93%

Asked: Which growth, % of control at 0.3 µM value is on record for `CCCCCCCCCCCCCCCC(=O)N(C)CC[N+](CC)(CC)CC` ?
Given back: 53.4%

---

Test system: HCT-15
Measurement protocol: Antiproliferative activity against human HCT15 cells at 0.3 uM by SRB assay
Format: functional
This section presents compounds with their documented growth, % of control at 0.3 µM values.
Report the value in % with no unit label.

INSERT INTO measurements (chemical_smiles, assay_target, attribute_measured, unit_tag, reported_value) VALUES
  ('CCCCCCCCCCCCCC(=O)NCCC[N+](C)(C)C', 'HCT-15', 'growth, % of control at 0.3 µM', '%', 82.5);

Asked: Which growth, % of control at 0.3 µM value is on record for `CCCCCCCCCCCCCCCC(=O)NCCC[N+](C)(C)C` ?
Given back: 104

Asked: Which growth, % of control at 0.3 µM value is on record for `CCCCCCCCCCCCCCCC(=O)N(C)CC[N+](CC)(CC)Cc1ccccc1` ?
Given back: 101

Asked: Which growth, % of control at 0.3 µM value is on record for `CCCCCCCCCCCCCCCC(=O)N(C)CCC[N+](C)(C)Cc1ccccc1` ?
Given back: 96.6

Asked: Which growth, % of control at 0.3 µM value is on record for `CCCCCCCCCCCCCC(=O)N(C)CCC[N+](C)(C)Cc1ccccc1` ?
Given back: 86.7

Asked: Which growth, % of control at 0.3 µM value is on record for `C=CC[N+](C)(C)CCCN(C)C(=O)CCCCCCCCCCCCCCC` ?
Given back: 103

Asked: Which growth, % of control at 0.3 µM value is on record for `CCCCCCCCCCCCCCCC(=O)N(C)CC[N+](CC)(CC)CC` ?
Given back: 83.5

---

System: ACHN
Measurement protocol: Antiproliferative activity against human ACHN cells by SRB assay
Format: functional
This section presents molecules with their documented GI50 values.
Report the value in nM with no unit label.

# example entries with known answers
INSERT INTO measurements (chemical_smiles, attribute_measured, reported_value) VALUES
  ('C=CC[N+]1(CC)CCN(C(=O)CCCCCCCCCCCCCCC)CC1', 'GI50', 500),
  ('CCCCCCCCCCCCCC(=O)NCC(C)(C)C[N+](C)(C)C', 'GI50', 3120);

// next entry
Asked: Which GI50 value is on record for `CCCCCCCCCCCCCCCCCC(=O)N(C)CC[N+](C)(C)C` ?
Given back: 360

---

This section presents compounds with their documented GI50 values.
System: PC-3
Measurement protocol: Antiproliferative activity against human PC3 cells by SRB assay
Assay type: functional
Report the value in nM with no unit label.

# example entries with known answers
INSERT INTO assay_data (chemical_smiles, attribute_measured, reported_value) VALUES
  ('CCCCCCCCCCCCCCCC(=O)NCCC[N+](C)(C)C', 'GI50', 600),
  ('CCCCCCCCCCCCCCCC(=O)N(C)CC[N+](C)(C)CC', 'GI50', 250),
  ('C=CC[N+](C)(C)CCCN(C)C(=O)CCCCCCCCCCCCC', 'GI50', 310);

Asked: Which GI50 value is on record for `CCCCCCCCCCCCCCCC(=O)N(C)CC[N+](C)(C)C` ?
Given back: 370

Asked: Which GI50 value is on record for `CCCCCCCCCCCCCCCCCC(=O)NCC(C)(C)C[N+](C)(C)Cc1ccccc1` ?
Given back: 510

---

Test system: PC-3
Measurement protocol: Antiproliferative activity against human PC3 cells at 1 uM by SRB assay
Format: functional
This section presents compounds with their documented growth, % of control at 1 µM values.
Report the value in % with no unit label.

INSERT INTO measurements (chemical_smiles, reported_value) VALUES
  ('C=CC[N+](C)(C)CCCN(C)C(=O)CCCCCCCCCCCCC', 35.4);

Asked: So what growth, % of control at 1 µM did `CCCCCCCCCCCCCCCCCC(=O)NCC(C)(C)C[N+](C)(C)CC` get with PC-3?
Given back: 21.6

Asked: So what growth, % of control at 1 µM did `CCCCCCCCCCCCCC(=O)N(C)CCC[N+](C)(C)Cc1ccccc1` get with PC-3?
Given back: 56.5

Asked: So what growth, % of control at 1 µM did `CCCCCCCCCCCCCC(=O)NCCC[N+](C)(C)C` get with PC-3?
Given back: 44.6

Asked: So what growth, % of control at 1 µM did `C=CC[N+](CC)(CC)CCN(C)C(=O)CCCCCCCCCCCCCCC` get with PC-3?
Given back: 0.8

Asked: So what growth, % of control at 1 µM did `CCCCCCCCCCCCCCCC(=O)N(C)CCC[N+](C)(C)CC` get with PC-3?
Given back: 44.6

Asked: So what growth, % of control at 1 µM did `CCCCCCCCCCCCCCCCCC(=O)NCC(C)(C)C[N+](C)(C)Cc1ccccc1` get with PC-3?
Given back: 38.5

Asked: So what growth, % of control at 1 µM did `CCCCCCCCCCCCCCCC(=O)NCCC[N+](C)(C)C` get with PC-3?
Given back: 62.6

Asked: So what growth, % of control at 1 µM did `CCCCCCCCCCCCCC(=O)N(C)CCC[N+](C)(C)C` get with PC-3?
Given back: 32.1

Asked: So what growth, % of control at 1 µM did `CCCCCCCCCCCCCCCC(=O)N(C)CCC[N+](C)(C)C` get with PC-3?
Given back: 47.2

Asked: So what growth, % of control at 1 µM did `CCCCCCCCCCCCCC(=O)N(C)CC[N+](CC)(CC)CC` get with PC-3?
Given back: 11.7

---

Test system: ACHN
Measurement protocol: Antiproliferative activity against human ACHN cells by SRB assay
Type: functional
Attribute measured: GI50
The reply should consist of the numeric value with the unit placed after it.

# example entries with known answers
INSERT INTO measurements (chemical_smiles, attribute_measured, reported_value) VALUES
  ('CCCCCCCCCCCCCCCC(=O)N(C)CC[N+](CC)(CC)CC', 'GI50', '270 nM'),
  ('CCCCCCCCCCCCCC(=O)N(C)CCC[N+](C)(C)C', 'GI50', '1010 nM'),
  ('CCCCCCCCCCCCCCCCCC(=O)NCCC[N+](C)(C)C', 'GI50', '3400 nM'),
  ('CCCCCCCCCCCCCCCCCC(=O)NCC(C)(C)C[N+](C)(C)C', 'GI50', '2300 nM');

Asked: Which GI50 value is on record for `C=CC[N+](C)(C)CCCN(C)C(=O)CCCCCCCCCCCCCCC` ?
Given back: 470 nM

Asked: Which GI50 value is on record for `CCCCCCCCCCCCCCCC(=O)N(C)CCC[N+](C)(C)CC` ?
Given back: 1020 nM

Asked: Which GI50 value is on record for `C=CC[N+](CC)(CC)CCN(C)C(=O)CCCCCCCCCCCCC` ?
Given back: 100 nM

Asked: Which GI50 value is on record for `CCCCCCCCCCCCCC(=O)N(C)CCC[N+](C)(C)Cc1ccccc1` ?
Given back: 1890 nM
